# System: Staphylococcus aureus
# measurement-description: Antimicrobial activity against methicillin-resistant Staphylococcus aureus MTCC 96 after 16 to 24 hrs by agar dilution method
# Type: functional
Would you kindly list MIC for each of these molecules?
Quick note: unit goes after the number.

O=C(O)CCCC(=O)Nc1ccc(-c2nc3cccnc3[nH]2)cc1 : 38.5 µM
O=C(O)CC(=O)Nc1ccc(-c2nc3cc([N+](=O)[O-])ccc3[nH]2)cc1 : 18.3 µM

// field: MIC; key: COC(=O)CCCC(=O)Nc1ccc(-c2nc3cc(Cl)ccc3[nH]2)cc1 ; value = 134 µM

----------
# target-entity: DNA gyrase subunit B (Staphylococcus aureus)
# Sequence (P0A0K8 whole entry): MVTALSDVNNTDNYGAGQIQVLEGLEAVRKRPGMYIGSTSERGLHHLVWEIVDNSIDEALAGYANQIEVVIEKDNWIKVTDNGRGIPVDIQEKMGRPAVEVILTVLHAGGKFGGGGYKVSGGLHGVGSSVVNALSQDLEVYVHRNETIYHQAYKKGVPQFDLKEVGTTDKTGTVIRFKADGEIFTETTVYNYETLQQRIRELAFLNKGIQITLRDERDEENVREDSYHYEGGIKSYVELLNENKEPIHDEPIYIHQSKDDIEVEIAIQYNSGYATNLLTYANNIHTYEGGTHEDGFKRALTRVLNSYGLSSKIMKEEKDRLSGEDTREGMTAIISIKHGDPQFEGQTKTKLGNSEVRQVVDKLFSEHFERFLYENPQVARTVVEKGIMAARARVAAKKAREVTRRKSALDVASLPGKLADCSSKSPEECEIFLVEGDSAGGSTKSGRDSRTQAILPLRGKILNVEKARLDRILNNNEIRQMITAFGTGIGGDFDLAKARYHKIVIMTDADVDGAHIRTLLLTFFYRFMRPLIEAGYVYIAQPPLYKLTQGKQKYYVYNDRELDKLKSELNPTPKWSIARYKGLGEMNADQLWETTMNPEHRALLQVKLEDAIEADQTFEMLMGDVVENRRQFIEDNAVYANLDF
# measurement-description: Inhibition of Staphylococcus aureus DNA gyrase B ATPase activity
Would you kindly list IC50 for each of these compounds?
Answers are plain numbers, in µM.

Example results:
O=C(O)CCCCC(=O)Nc1ccc(-c2nc3cc(Cl)ccc3[nH]2)cc1 : 13.1
O=C(O)CCCCC(=O)Nc1ccc(-c2nc3cc([N+](=O)[O-])ccc3[nH]2)cc1 : 9.82
O=C(O)CC(=O)Nc1ccc(-c2nc3cc(F)ccc3[nH]2)cc1 : 13.4

Hi, could you look up IC50 for each item in my list?
1. O=C(O)CCC(=O)Nc1ccc(NC(=O)c2ccco2)cc1
2. O=C(O)COCC(=O)Nc1ccc(-c2nc3cc([N+](=O)[O-])ccc3[nH]2)cc1

[12.9, 8.51]

Please report IC50 for every entry that follows.
1. O=C(O)CCC(=O)Nc1ccc(-c2nc3ccccc3[nH]2)cc1
2. O=C(O)CCCC(=O)Nc1ccc(-c2nc3cc(Cl)ccc3[nH]2)cc1

[7.32, 9.85]

----------
# measurement-description: Cytotoxicity against human HEK293 cells assessed as reduction in cell viability at 100 uM after 72 hrs by MTT assay
# Assay type: cell-based
# condition-info: read-out: INH
Grouping key: cytotoxicity at 72 h, 100 µM. Bins: lower level = under 20%, middle level = from 20% up to 30%, upper level = 30% and over

Please review the following examples before continuing.
O=C(O)CC(=O)Nc1ccc(-c2nc3cc(Cl)ccc3[nH]2)cc1 : middle level
O=C(O)CC(=O)Nc1ccc(-c2nc3cc(F)ccc3[nH]2)cc1 : lower level
O=C(O)CCC(=O)Nc1ccc(-c2nc3cc(F)ccc3[nH]2)cc1 : middle level
O=C(O)CCCCC(=O)Nc1ccc(-c2nc3cccnc3[nH]2)cc1 : middle level
COC(=O)CCCC(=O)Nc1ccc(-c2nc3cc([N+](=O)[O-])ccc3[nH]2)cc1 : upper level

From here, focus on the item given below.
Which cytotoxicity at 72 h, 100 µM category applies to O=C(O)COCC(=O)Nc1ccc(-c2nc3cccnc3[nH]2)cc1 here?
upper level

----------
# measurement-description: Cytotoxicity against human HEK293 cells assessed as reduction in cell viability at 100 uM after 72 hrs by MTT assay
# Format: cell-based
# condition-info: read-out: INH
Label yes (1) when cytotoxicity at 72 h, 100 µM < 30%; otherwise no (0).

Does O=C(O)CC(=O)Nc1ccc(-c2nc3cccnc3[nH]2)cc1 have cytotoxicity at 72 h, 100 µM strictly under 30%?
yes (1)

----------
# measurement-description: Cytotoxicity against human HEK293 cells assessed as reduction in cell viability at 100 uM after 72 hrs by MTT assay
# Assay type: cell-based
# condition-info: read-out: INH
readout-kind: cytotoxicity at 72 h, 100 µM (%)
One number for each entry, in %.

A selection of reference data follows.
COc1ccc2[nH]c(-c3ccc(NC(=O)CCCCC(=O)O)cc3)nc2c1 : 29.4
O=C(O)CSCC(=O)Nc1ccc(-c2nc3cccnc3[nH]2)cc1 : 31.9
O=C(O)COCC(=O)Nc1ccc(-c2nc3cc(Cl)ccc3[nH]2)cc1 : 29.7

Give one value of cytotoxicity at 72 h, 100 µM per listed compound.
1. COc1ccc2[nH]c(-c3ccc(NC(=O)CSCC(=O)O)cc3)nc2c1
2. O=C(O)CC(=O)Nc1ccc(-c2nc3ccccc3[nH]2)cc1

22.6
7.2
